Data origin: ChEMBL document CHEMBL5724914

Assay: The drug is tested on Z-026 corresponding to metagenome with ENA study accession number: PRJEB37062 and ENA sample accession number: ERS12561825 for biotransformation under anaerobic condition. The drug concentrations were measured over 9 timepoints collected between 0 and 24 hours of incubation by liquid-chromatography-coupled mass spectrometry (LC–MS); also: call rule not given here
Conditions: 2 µM
MEASUREMENT_TYPE: Bacterial Biotransformation

Below, 5 compounds whose answers are already recorded.
NC12CC3CC(CC(C3)C1)C2 [AMANTADINE]; Compound NOT metabolized
COC(=O)Nc1nc2ccc(C(=O)c3ccccc3)cc2[nH]1 [MEBENDAZOLE]; Compound NOT metabolized
OC(CCN1CCCCC1)(c1ccccc1)C1CCCCC1 (stereo not drawn) [TRIHEXYPHENIDYL]; Compound NOT metabolized
CO[C@]12C[C@@H](COC(=O)c3cncc(Br)c3)CN(C)[C@@H]1Cc1cn(C)c3cccc2c13 [NICERGOLINE]; Compound metabolized
COc1ccc2[nH]c([S+]([O-])Cc3ncc(C)c(OC)c3C)nc2c1 (stereo not drawn) [OMEPRAZOLE]; Compound metabolized

Quick one: give me Bacterial Biotransformation for each item below, same order please.
1. OCCN1CCN(CCCN2c3ccccc3Sc3ccc(C(F)(F)F)cc32)CC1 [FLUPHENAZINE]
2. CN1CCOC(c2ccccc2)c2ccccc2C1 (stereo not drawn) [NEFOPAM]
3. NC(CO)(CO)CO.O=C(c1ccccc1)c1ccc2n1CCC2C(=O)O (stereo not drawn) [KETOROLAC TROMETHAMINE]
4. CCCc1nn(C)c2c(=O)[nH]c(-c3cc(S(=O)(=O)N4CCN(C)CC4)ccc3OCC)nc12.O=C(O)CC(O)(CC(=O)O)C(=O)O [SILDENAFIL CITRATE]
5. CCN(CC)CCOCCOC(=O)C1(c2ccccc2)CCCC1.O=C(O)CC(O)(CC(=O)O)C(=O)O [CARBETAPENTANE CITRATE]
6. CC(C)(C#N)c1cc(Cn2cncn2)cc(C(C)(C)C#N)c1 [ANASTROZOLE]

// result
1: Compound NOT metabolized; 2: Compound NOT metabolized; 3: Compound NOT metabolized; 4: Compound NOT metabolized; 5: Compound NOT metabolized; 6: Compound NOT metabolized

Quick one: give me Bacterial Biotransformation for each item below, same order please.
1. CCN(CC)CCNC(C(=O)OCCC(C)C)c1ccccc1.Cl.Cl (stereo not drawn)
2. Cc1nc2n(c(=O)c1CCN1CCC(c3noc4cc(F)ccc34)CC1)CCCC2 [RISPERIDONE]
3. Cc1ccccc1N1C(=O)c2cc(S(N)(=O)=O)c(Cl)cc2NC1C (stereo not drawn) [METOLAZONE]
4. CN1CCN(C(=O)O[C@H]2c3nccnc3C(=O)N2c2ccc(Cl)cn2)CC1 [ESZOPICLONE]
5. CN1CCc2c(c3ccccc3n2Cc2ccccc2)C1.CN1CCc2c(c3ccccc3n2Cc2ccccc2)C1.O=S(=O)(O)c1cccc2c(S(=O)(=O)O)cccc12
6. CNCCC(Oc1ccc(C(F)(F)F)cc1)c1ccccc1 (stereo not drawn) [FLUOXETINE]
7. C=CCc1ccccc1OCC(O)CNC(C)C (stereo not drawn) [ALPRENOLOL]

// result
1. Compound NOT metabolized
2. Compound NOT metabolized
3. Compound metabolized
4. Compound NOT metabolized
5. Compound NOT metabolized
6. Compound NOT metabolized
7. Compound metabolized

----------
Settings: human gut metagenome, 24 h, 2 µM
MEASUREMENT_TYPE: Bacterial Biotransformation

O=C(O)CCc1nc(-c2ccccc2)c(-c2ccccc2)o1; Compound metabolized
CC(=O)CC(c1ccccc1)c1c(O)c2ccccc2oc1=O (centres undefined); Compound metabolized
CC(C)c1c(C(=O)Nc2ccccc2)c(-c2ccccc2)c(-c2ccc(F)cc2)n1CC[C@@H](O)C[C@@H](O)CC(=O)O; Compound NOT metabolized
CC(C(=O)O)c1ccc2c(c1)Cc1cccnc1O2 (centres undefined); Compound metabolized

Quick one: give me Bacterial Biotransformation for each item below, same order please.
1. Cc1ccc(S(=O)(=O)NC(=O)NN2CC3CCCC3C2)cc1 (centres undefined) [GLICLAZIDE]
2. CNCCC(Oc1ccc(C(F)(F)F)cc1)c1ccccc1 (centres undefined)
3. CCOC(=O)[C@H](CCc1ccccc1)N[C@@H](C)C(=O)N1[C@H](C(=O)O)C[C@H]2CCCC[C@@H]21

// result
Compound metabolized
Compound metabolized
Compound NOT metabolized

Quick one: give me Bacterial Biotransformation for each item below, same order please.
1. CCCc1nc(C(C)(C)O)c(C(=O)OCc2oc(=O)oc2C)n1Cc1ccc(-c2ccccc2-c2nnn[nH]2)cc1
2. CN1CCOC(c2ccccc2)c2ccccc2C1 (centres undefined)

// result
["Compound metabolized", "Compound metabolized"]

----------
Details: human gut metagenome, 24 h, 2 µM
MEASUREMENT_TYPE: Bacterial Biotransformation

CCOC(=O)[C@H](CCc1ccccc1)N[C@@H](C)C(=O)N1[C@H](C(=O)O)C[C@H]2CCCC[C@@H]21; Compound metabolized
Cc1ccc(S(=O)(=O)NC(=O)NN2CCCCCC2)cc1 [TOLAZAMIDE]; Compound metabolized
CCCc1nc(C(C)(C)O)c(C(=O)OCc2oc(=O)oc2C)n1Cc1ccc(-c2ccccc2-c2nnn[nH]2)cc1; Compound metabolized

----------
Details: human gut metagenome, 24 h, 2 µM
Where a SMILES comes first, the peptide text is derived from it. [ ]: non-standard residue; d: D form. pGlu = O=C1CC[C@@H](C(=O)O)N1; Thz = O=C(O)[C@@H]1CSCN1
MEASUREMENT_TYPE: Bacterial Biotransformation

Below, 10 molecules whose answers are already recorded.
COc1cc2nc(N(C)CCCNC(=O)C3CCCO3)nc(N)c2cc1OC (configuration not stated); Compound metabolized
NC(CO)(CO)CO.O=C(c1ccccc1)c1ccc2n1CCC2C(=O)O (configuration not stated); Compound metabolized
COc1ccccc1OCC(O)CN1CCN(CC(=O)Nc2c(C)cccc2C)CC1 (configuration not stated); Compound NOT metabolized
O=C(O)COCCN1CCN(C(c2ccccc2)c2ccc(Cl)cc2)CC1 (configuration not stated); Compound metabolized
NS(=O)(=O)c1cc2c(cc1Cl)N=C(CSCc1ccccc1)NS2(=O)=O [BENZTHIAZIDE]; Compound NOT metabolized
C[C@@H]1CC[C@H]2[C@@H](C)C(=O)O[C@@H]3O[C@@]4(C)CC[C@@H]1[C@]32OO4; Compound NOT metabolized
CNCCC(Oc1ccc(C(F)(F)F)cc1)c1ccccc1 (configuration not stated); Compound NOT metabolized
O=c1[nH]c2ccccc2n1C1CCN(CCCC(c2ccc(F)cc2)c2ccc(F)cc2)CC1 [PIMOZIDE]; Compound NOT metabolized
OCCN1CCN(CCCN2c3ccccc3Sc3ccc(C(F)(F)F)cc32)CC1; Compound metabolized
C[C@@H](CO)NC(=O)[C@@H]1C=C2c3cccc4[nH]cc(c34)C[C@H]2N(C)C1.O=C(O)/C=C\C(=O)O [ERGONOVINE MALEATE]; Compound metabolized

Quick one: give me Bacterial Biotransformation for each item below, same order please.
1. O=C(CCCN1CCC(O)(c2ccc(Cl)cc2)CC1)c1ccc(F)cc1
2. CCCCC(=O)N(Cc1ccc(-c2ccccc2-c2nnn[nH]2)cc1)[C@H](C(=O)O)C(C)C
3. CC(C)(C(=O)O)c1ccc(C(O)CCCN2CCC(C(O)(c3ccccc3)c3ccccc3)CC2)cc1 (configuration not stated) [FEXOFENADINE]
4. CC[C@H](C)C(=O)O[C@H]1C[C@@H](C)C=C2C=C[C@H](C)[C@H](CC[C@@H]3C[C@@H](O)CC(=O)O3)[C@H]21
5. Cc1nc(-c2ccc(OCC(C)C)c(C#N)c2)sc1C(=O)O

// result
Compound NOT metabolized
Compound metabolized
Compound NOT metabolized
Compound NOT metabolized
Compound metabolized

Quick one: give me Bacterial Biotransformation for each item below, same order please.
1. O=C1CC[C@@H](C(=O)N2CSC[C@H]2C(=O)O)N1 [PIDOTIMOD] ([pGlu]-[Thz]-OH)
2. COC(=O)[C@H]1[C@H]2C[C@@H]3c4[nH]c5cc(OC)ccc5c4CCN3C[C@H]2C[C@@H](OC(=O)c2cc(OC)c(OC)c(OC)c2)[C@@H]1OC

// result
["Compound NOT metabolized", "Compound metabolized"]

----------
Conditions: human gut metagenome, 24 h, 2 µM
MEASUREMENT_TYPE: Bacterial Biotransformation

Below, 8 molecules whose answers are already recorded.
COc1ccccc1OCC(O)CN1CCN(CC(=O)Nc2c(C)cccc2C)CC1 (stereo not drawn); Compound NOT metabolized
COc1cc2c(c(OC)c1OC)-c1ccc(OC)c(=O)cc1[C@@H](NC(C)=O)CC2; Compound metabolized
CCCc1nc2c(C)cc(-c3nc4ccccc4n3C)cc2n1Cc1ccc(-c2ccccc2C(=O)O)cc1; Compound metabolized
O=C(Nc1ccccc1)OCC(CN1CCCCC1)OC(=O)Nc1ccccc1 (stereo not drawn); Compound NOT metabolized
COc1ccc2[nH]c([S+]([O-])Cc3ncc(C)c(OC)c3C)nc2c1 (stereo not drawn); Compound metabolized
O=C(O)COCCN1CCN(C(c2ccccc2)c2ccc(Cl)cc2)CC1 (stereo not drawn); Compound metabolized
CN1CCOC(c2ccccc2)c2ccccc2C1 (stereo not drawn); Compound metabolized
O=c1[nH]c2ccccc2n1CCCN1CCC(n2c(=O)[nH]c3cc(Cl)ccc32)CC1; Compound NOT metabolized

Quick one: give me Bacterial Biotransformation for each item below, same order please.
1. CC(Oc1c(Cl)cccc1Cl)C1=NCCN1 (stereo not drawn)
2. CC(C)N(CCC(C(N)=O)(c1ccccc1)c1ccccn1)C(C)C.O=P(O)(O)O (stereo not drawn) [DISOPYRAMIDE PHOSPHATE]
3. CCN(CC)C(C)CN1c2ccccc2Sc2ccccc21 (stereo not drawn)
4. CCCc1nn(C)c2c(=O)[nH]c(-c3cc(S(=O)(=O)N4CCN(C)CC4)ccc3OCC)nc12.O=C(O)CC(O)(CC(=O)O)C(=O)O [SILDENAFIL CITRATE]
5. CCC1(c2ccc(N)cc2)CCC(=O)NC1=O (stereo not drawn) [AMINOGLUTETHIMIDE]
6. CCN(CC)CCNC(=O)c1cc(Cl)c(N)cc1OC [METOCLOPRAMIDE]
7. c1ccc([C@H]2CN3CCSC3=N2)cc1

// result
["Compound NOT metabolized", "Compound NOT metabolized", "Compound metabolized", "Compound NOT metabolized", "Compound NOT metabolized", "Compound NOT metabolized", "Compound metabolized"]
